assayed system: DNMT3A_CD (catalytic domain of DNMT3A) (Homo sapiens, UniProt Q9Y6K1)
Construct: The catalytic domain of DNMT3A (residues 634 -912) were used for all experiments
Sequence (Q9Y6K1 634-912): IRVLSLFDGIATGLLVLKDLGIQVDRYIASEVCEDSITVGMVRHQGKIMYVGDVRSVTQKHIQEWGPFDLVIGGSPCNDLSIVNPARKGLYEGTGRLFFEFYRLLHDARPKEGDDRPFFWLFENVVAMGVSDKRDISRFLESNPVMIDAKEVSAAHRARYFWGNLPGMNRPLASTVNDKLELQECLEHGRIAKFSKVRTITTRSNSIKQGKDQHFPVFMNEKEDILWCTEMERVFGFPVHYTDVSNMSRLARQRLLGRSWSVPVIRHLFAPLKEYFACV
measurement protocol: In vitro methylation assay, IC50 determination ([3H]-SAM, poly dI-dC)
run conditions: 150 nM DNMT3A, 10 uM SAM, 10 uM poly dI-dC; 1 hour preincubation; Hill slope constrained to -2
outcome measure: IC50 (µM)
Report the figure in µM without appending any unit label.

O=c1c2ccccc2c(-c2cccc(OCCCCOc3ccc(-c4nn[nH]n4)cc3)c2)nn1C1CCCCCC1 [Compound 13]	13

Look at this compound and give its reported IC50. COc1ccc(C2=NN(C3CCCCCC3)C(=O)[C@@H]3CC=CC[C@H]23)cc1OCCCCOc1ccc(C(=O)O)cc1 [Compound 3] 23
